Target: T1, full-length His-tagged IL-17F protein (ab167911, Abcam) (human, UniProt Q96PD4 31-163)
T1 construct: Bought protein, called 'full-length'; also called human IL-17F protein; recombinant human IL-17F protein; not shown: His tag of the bought protein
T1 chain: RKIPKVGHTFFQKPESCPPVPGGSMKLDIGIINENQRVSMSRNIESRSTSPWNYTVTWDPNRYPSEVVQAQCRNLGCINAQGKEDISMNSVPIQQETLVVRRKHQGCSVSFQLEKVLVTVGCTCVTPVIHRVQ
Experiment: method not named there (same number as the ELISA EC50)
Readout label: pKd
The scale used: pKd is minus the common logarithm of the concentration in molar units.

# pKd of RSYNK (not fully specified; cyclised by a triazole between flanking N-terminal Pra (L-propargylglycine) and C-terminal Az4 (L-azidolysine); Biotin-PEG3 label, also called LF2; PEG3-biotin-modified Cy(RSYNK)) [Biotin-PEG3-Cy(RSYNK) (SEQ ID NO:28)] = 7.82
